- assay-system: IGF-1R Ba/F3 (Homo sapiens, UniProt P08069)
- Construct: fused on or other part: TEL- (or BCR-) IGF-1R in Ba/F3: the kinase part holds the site
- Sequence (P08069 999-1274 limits assumed): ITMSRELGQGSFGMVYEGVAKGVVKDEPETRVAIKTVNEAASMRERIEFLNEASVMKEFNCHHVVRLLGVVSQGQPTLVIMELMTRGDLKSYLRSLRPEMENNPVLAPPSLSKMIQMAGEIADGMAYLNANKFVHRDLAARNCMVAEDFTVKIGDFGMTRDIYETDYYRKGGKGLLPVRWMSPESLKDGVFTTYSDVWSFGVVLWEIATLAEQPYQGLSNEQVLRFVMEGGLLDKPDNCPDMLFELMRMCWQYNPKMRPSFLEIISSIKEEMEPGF
- experiment: Ba/F3 Cell Viability Inhibition Assay (IGF-1R Ba/F3)
- recorded-conditions: Tel-TK transformed Ba/F3 cells, 48 hours, Britelite luminescence
Reported IC50 maps to class as: low end = under 0.03 µM, middle = from 0.03 µM up to 0.06 µM, high end = 0.06 µM and over

compound: Cc1cc(Nc2nc(Nc3cc(Cl)c(C4CCN(C(=O)CN5CCOCC5)CC4)cc3C)ncc2Cl)n[nH]1
category-label: low end
--
compound: Cc1cc(Nc2nc(Nc3cc(C)c(C4CCN(C5CCC(O)CC5)CC4)cc3F)ncc2Cl)n[nH]1 (stereo not drawn)
category-label: low end
--
compound: Cc1cc(Nc2nc(Nc3cc(C)c(C4CCN(C(=O)CN5CCN(C)CC5)CC4)cc3F)ncc2Cl)n[nH]1
category-label: middle
--
compound: Cc1cc(Nc2nc(Nc3cc(C4CCN(C(C)C(N)=O)CC4)c(F)cc3C)ncc2Cl)n[nH]1 (stereo not drawn)
category-label: high end
--
compound: Cc1cc(Nc2nc(Nc3cc(C)c(C4CCN(S(C)(=O)=O)CC4)cc3F)ncc2Cl)n[nH]1
category-label: low end
--
compound: CNC(C)C(=O)N1CCC(c2cc(F)c(Nc3ncc(Cl)c(Nc4cc(C)[nH]n4)n3)cc2C)CC1 (stereo not drawn)
category-label: middle
--
compound: Cc1cc(Nc2nc(Nc3cc(C)c(C4CCN(CCS(=O)(=O)N(C)C)CC4)cc3F)ncc2Cl)n[nH]1
category-label: middle
--
compound: Cc1cc(Nc2nc(Nc3cc(C)c(C4CCN(Cc5ccnnc5)CC4)cc3F)ncc2Cl)n[nH]1
category-label: low end
--
compound: Cc1cc(Nc2nc(Nc3cc(C)c(C4CCN(C(=O)CCN(C)C)CC4)cc3F)ncc2Cl)n[nH]1
category-label: high end
--
compound: Cc1cc(Nc2nc(Nc3cc(C)c(C4CCN(CCCS(=O)(=O)N5CCC5)CC4)cc3F)ncc2Cl)n[nH]1
category-label: high end
--
compound: Cc1cc(C2CCN(C(=O)CN(C)C)CC2)c(C)cc1Nc1ncc(Cl)c(Nc2cc(C(F)(F)F)[nH]n2)n1
category-label: middle
--
compound: Cc1cc(Nc2nc(Nc3cc(C)c(C4CCN(Cc5cncnc5)CC4)cc3C)ncc2Cl)n[nH]1
category-label: low end
--
compound: Cc1cc(Nc2nc(Nc3cc(C)c(C4CCCN(C(=O)CN(C)C)C4)cc3C)ncc2Cl)n[nH]1 (stereo not drawn)
category-label: low end
--
compound: Cc1cc(Nc2nc(Nc3cc(C)c([C@H]4CCN[C@H](C)C4)cc3F)ncc2Cl)n[nH]1 (relative stereo)
category-label: high end
--
compound: Cc1cc(Nc2nc(Nc3cc(C)c(C4CCN(C(=O)C5(N)CCC5)CC4)cc3C)ncc2Cl)n[nH]1
category-label: middle
--
compound: CCN1CCC(c2cc(F)c(Nc3ncc(Cl)c(Nc4cc(C)[nH]n4)n3)cc2C)CC1
category-label: low end
--
compound: Cc1cc(Nc2nc(Nc3cc(C)c(C4CCN(Cc5noc(C)n5)CC4)cc3F)ncc2Cl)n[nH]1
category-label: low end
--
compound: Cc1cc(Nc2nc(Nc3cc(C)c(C4CCN(C(=O)CN)CC4)cc3F)ncc2Cl)n[nH]1
category-label: high end
--
compound: Cc1cc(Nc2nc(Nc3cc(C)c(C4CCN(C5CCN(C(=O)OC(C)(C)C)C5)CC4)cc3F)ncc2Cl)n[nH]1 (stereo not drawn)
category-label: high end
--
compound: Cc1cc(Nc2nc(Nc3cc(C)c(C4CCN(C(=O)OC(C)C)CC4)cc3F)ncc2Cl)n[nH]1
category-label: high end
--
compound: Cc1cc(Nc2nc(Nc3cc(C)c(C4CCN(CCC(F)(F)F)CC4)cc3C)ncc2Cl)n[nH]1
category-label: middle
--
compound: Cc1cc(Nc2nc(Nc3cc(C)c(C4CCN(C(N)=O)CC4)cc3C)ncc2Cl)n[nH]1
category-label: low end
--
compound: Cc1cc(Nc2nc(Nc3cc(C4CCNCC4)c(F)cc3C)ncc2Cl)n[nH]1
category-label: high end
--
compound: Cc1cc(Nc2nc(Nc3cc(C)c(C4CCN(C(=O)C5CN(C)C5)CC4)cc3C)ncc2Cl)n[nH]1
category-label: low end
--
compound: Cc1cc(Nc2nc(Nc3cc(C)c(C4CCN(C(=O)CN5CCCC5)CC4)cc3F)ncc2Cl)n[nH]1
category-label: middle
--
compound: Cc1cc(C2CCN(C3CC3)CC2)c(C)cc1Nc1ncc(Cl)c(Nc2cc(C3CC3)[nH]n2)n1
category-label: low end
--
compound: Cc1cc(Nc2nc(Nc3cc(C)c(C4CCN(C(=O)C5CN(C)C5)CC4)cc3F)ncc2Cl)n[nH]1
category-label: high end
--
compound: Cc1cc(Nc2nc(Nc3cc(C)c(C4CCN(CCO)CC4)cc3C)ncc2Cl)n[nH]1
category-label: low end
